molecular target: α-Glucosidase from recombinant yeast (Saccharomyces cerevisiae, UniProt P53341); construct: purchased Shanghai yuanye Bio-Technology Co. Ltd; host or cells: recombinant yeast; assay: biochemical; assay type: biochemical
Sequence (P53341 whole entry): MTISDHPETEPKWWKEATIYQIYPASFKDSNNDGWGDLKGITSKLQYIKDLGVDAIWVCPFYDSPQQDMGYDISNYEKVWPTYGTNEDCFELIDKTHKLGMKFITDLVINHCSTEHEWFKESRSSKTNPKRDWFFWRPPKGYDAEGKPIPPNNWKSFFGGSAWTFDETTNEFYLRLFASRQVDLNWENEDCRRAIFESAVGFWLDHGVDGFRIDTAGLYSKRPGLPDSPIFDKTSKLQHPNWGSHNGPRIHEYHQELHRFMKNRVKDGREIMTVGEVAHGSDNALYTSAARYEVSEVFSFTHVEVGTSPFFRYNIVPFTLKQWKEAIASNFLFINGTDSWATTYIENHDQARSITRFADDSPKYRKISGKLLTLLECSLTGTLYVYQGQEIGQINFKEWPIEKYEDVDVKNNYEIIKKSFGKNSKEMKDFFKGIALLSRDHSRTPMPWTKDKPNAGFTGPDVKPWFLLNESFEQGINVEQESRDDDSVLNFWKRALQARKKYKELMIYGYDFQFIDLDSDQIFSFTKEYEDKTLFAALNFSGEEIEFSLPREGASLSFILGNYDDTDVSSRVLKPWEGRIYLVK
Catalogue of IC50 readings, one per entry.
Write down the numeric answer in µM and omit the unit.

Consider the compound CCCCC/C=C\C/C=C\CCCCCCCC(=O)O [C18:2, linoleic acid] and give its recorded IC50. 0.6

Further cases:
Consider the compound CC/C=C\C/C=C\C/C=C\CCCCCCCC(=O)O [C18:3, α-linolenic acid] and give its recorded IC50. 0.54

Consider the compound CCCCC/C=C\CC(O)CCCCCCCCC(=O)O (stereo not drawn) [10-HOA, 10-hydroxy-cis-12-octadecenoic acid] and give its recorded IC50. 0.39

* * *

molecular target: α-Glucosidase from recombinant yeast (Saccharomyces cerevisiae); construct: purchased Shanghai yuanye Bio-Technology Co. Ltd; host or cells: recombinant yeast; assay: biochemical; format: biochemical; details: 0.1 M phosphate buffer pH 6.9, 0.5% DMSO, 37 °C, α-PNPG; mean ± SD (n = 3); read-out: IC50
Catalogue of log10(IC50) readings, one per entry.
In our notation, the value equals log10 of IC50 in nM.

Consider the compound CCCCCCCC/C=C\CCCCCCCC(=O)O [cis-C18:1, Oleic acid] and give its recorded log10(IC50). 2.91

Consider the compound CCCCCCCCCCCC(=O)O and give its recorded log10(IC50). 5.13

Consider the compound CCCCCCCCC(O)CCCCCCCCC(=O)O (stereo not shown) [10-HSA, 10-hydroxystearic acid] and give its recorded log10(IC50). 3.23

Consider the compound CCCCCCCCCCCCCC(=O)O and give its recorded log10(IC50). 4.75

Consider the compound CCCCCCCC/C=C\CCCCCCCC(=O)OC(C)C [Isopropyl, isopropyl oleate] and give its recorded log10(IC50). 2.78

Consider the compound CCCCCCCC/C=C\CCCCCCCC(=O)OCCC [Propyl, propyl oleate] and give its recorded log10(IC50). 3.24

Next compound, please.
Consider the compound CCCCCCCC/C=C\CCCCCCCC(=O)OCCCCC [Pentyl, amyl oleate] and give its recorded log10(IC50). 3.51

* * *

target: α-Glucosidase from recombinant yeast (Saccharomyces cerevisiae, UniProt P53341); construct: purchased Shanghai yuanye Bio-Technology Co. Ltd; host or cells: recombinant yeast; assay: biochemical; assay type: biochemical; conditions: 1/IC50; Table 4, S4
Parameter measured: Inhibitory score
Number only, no unit.

Consider the compound CCCCCCCC/C=C\CCCCCCCC(=O)OCCC [Propyl, propyl oleate] and give its recorded Inhibitory score. 0.57

* * *

target: α-Glucosidase from recombinant yeast (Saccharomyces cerevisiae, UniProt P53341); construct: purchased Shanghai yuanye Bio-Technology Co. Ltd; host or cells: recombinant yeast; assay: biochemical; format: biochemical; conditions: 0.1 M phosphate buffer pH 6.9, 0.5% DMSO, 37 °C, α-PNPG; mean ± SD (n = 3); read-out: IC50
Parameter measured: IC50 (µM)
Write down the numeric answer in µM and omit the unit.

Please review the entries below; each comes with its answer.
Consider the compound CCCCCCCC/C=C\CCCCCCCC(=O)OCCCC [Butyl, butyl oleate] and give its recorded IC50. 2.34

Consider the compound CCCCCCCCCCCCCCCC(=O)O [C16:0, palmitic acid] and give its recorded IC50. 14

Consider the compound CCCCCCCC/C=C\CCCCCCCC(=O)OCCCCCCCC [Octyl, octyl oleate] and give its recorded IC50. 3.25

Consider the compound CCCCCCCCCC(=O)O [C10:0, capric acid] and give its recorded IC50. 114

Further cases:
Consider the compound CCCCCCCC/C=C\CCCCCCCC(=O)OCCCCCC [Hexyl, hexyl oleate] and give its recorded IC50. 4.16
